Sourced from patent US8748461B2

Biological target: CYP2C9 (Homo sapiens, UniProt P11712)
Sequence (P11712 whole entry): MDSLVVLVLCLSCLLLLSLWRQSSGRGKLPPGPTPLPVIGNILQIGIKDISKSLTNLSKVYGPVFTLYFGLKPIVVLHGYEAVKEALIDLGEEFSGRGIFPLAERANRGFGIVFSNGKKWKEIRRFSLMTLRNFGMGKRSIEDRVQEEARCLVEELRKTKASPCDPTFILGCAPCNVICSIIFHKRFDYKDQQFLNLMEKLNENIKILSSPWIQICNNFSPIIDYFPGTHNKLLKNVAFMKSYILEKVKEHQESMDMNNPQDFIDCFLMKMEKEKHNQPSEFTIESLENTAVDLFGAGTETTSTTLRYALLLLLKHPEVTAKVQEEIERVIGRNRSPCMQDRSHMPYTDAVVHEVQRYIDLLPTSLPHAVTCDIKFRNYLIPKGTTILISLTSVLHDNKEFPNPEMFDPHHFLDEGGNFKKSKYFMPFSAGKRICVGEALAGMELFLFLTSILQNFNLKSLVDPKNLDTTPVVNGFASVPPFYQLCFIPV
Reported metric: IC50 (µM)
Give the value, in units of µM, as a plain number.

Return reported IC50; argument: N#Cc1ccc(Oc2ccc(C(F)(F)C(O)(Cn3cnnn3)c3ccc(F)cc3F)nc2)cc1 (stereo not shown)
31

----------
Test system: Septoria tritici (ATCC 26517)
Experiment: Minimum Inhibitory Concentration (MIC) vs. Septoria tritici
Type: cell-based
Details: Zymoseptoria tritici, ATCC26517, 168 h; 50% reduction in growth of S. tritici; 22° C., seven days; read-out: Septoria Rating (MIC)
Examples of compounds with documented MIC follow.

N#Cc1ccc(COc2ccc(C(F)(F)C(O)(Cn3cnnn3)c3ccc(Cl)cc3F)nc2)nc1 (stereo not shown)
≤ 0.5 µg/mL

Return reported MIC; argument: OC(Cn1cnnn1)(c1ccc(Cl)cc1F)C(F)(F)c1ccc(OCC(F)(F)F)cn1 (stereo not shown)
≤ 0.5 µg/mL

Return reported MIC; argument: N#Cc1ccc(COc2ccc(C(F)(F)C(O)(Cn3cnnn3)c3ccc(F)cc3F)nc2)nc1 (stereo not shown)
≤ 0.5 µg/mL

Return reported MIC; argument: OC(Cn1cnnn1)(c1ccc(F)cc1F)C(F)(F)c1ccc(OCC(F)c2ccccc2)cn1 (stereo not shown)
≤ 0.5 µg/mL

----------
System: Septoria tritici (ATCC 26517)
Examples of compounds with documented MIC follow.

OC(Cn1cnnn1)(c1ccc(F)cc1F)C(F)(F)c1ccc(OCc2ccncc2)cn1 (stereo not shown)
≤ 0.5 µg/mL
N#Cc1cccc(COc2ccc(C(F)(F)C(O)(Cn3cnnn3)c3ccc(F)cc3F)nc2)c1 (stereo not shown)
≤ 0.5 µg/mL
N#Cc1ccc(Oc2ccc(C(F)(F)C(O)(Cn3ncnn3)c3ccc(Cl)cc3F)nc2)cc1 (stereo not shown)
1.5 to 4 µg/mL

# context switch: different compound, same MIC
Return reported MIC; argument: N#Cc1ccc(Oc2ccc(C(F)(F)C(O)(Cn3cnnn3)c3ccc(Cl)cc3F)nc2)cc1 (stereo not shown)
≤ 0.5 µg/mL

----------
Data export: MIC values recorded with Septoria tritici (ATCC 26517).

Answered cases to consult:
CC(Oc1ccc(C(F)(F)C(O)(Cn2cnnn2)c2ccc(F)cc2F)nc1)C(F)(F)F (centres unmarked)
≤ 0.5 µg/mL
COc1cccc(COc2ccc(C(F)(F)C(O)(Cn3cnnn3)c3ccc(F)cc3F)nc2)c1 (centres unmarked)
≤ 0.5 µg/mL

Return reported MIC; argument: OC(Cn1cnnn1)(c1ccc(F)cc1F)C(F)(F)c1ccc(Oc2ccc(Br)cn2)cn1 (centres unmarked)
≤ 0.5 µg/mL

Return reported MIC; argument: OC(Cn1ncnn1)(c1ccc(F)cc1F)C(F)(F)c1ccc(OCc2ccccc2)cn1 (centres unmarked)
> 4 µg/mL

Return reported MIC; argument: OC(Cn1ncnn1)(c1ccc(F)cc1F)C(F)(F)c1ccc(OCc2cc(F)cc(F)c2)cn1 (centres unmarked)
> 4 µg/mL

Return reported MIC; argument: OC(Cn1cnnn1)(c1ccc(F)cc1F)C(F)(F)c1ccc(OCc2cccs2)cn1 (centres unmarked)
≤ 0.5 µg/mL

Return reported MIC; argument: OC(Cn1ncnn1)(c1ccc(F)cc1F)C(F)(F)c1ccc(OCC2CC2)cn1 (centres unmarked)
> 4 µg/mL

Return reported MIC; argument: OC(Cn1cnnn1)(c1ccc(F)cc1F)C(F)(F)c1ccc(SCC(F)(F)F)cn1 (centres unmarked)
1.5 to 4 µg/mL

Return reported MIC; argument: OC(Cn1cnnn1)(c1ccc(F)cc1F)C(F)(F)c1ccc(OCc2cccc(F)c2)cn1 (centres unmarked)
≤ 0.5 µg/mL

Return reported MIC; argument: N#Cc1ccc(C(F)(F)COc2ccc(C(F)(F)C(O)(Cn3cnnn3)c3ccc(F)cc3F)nc2)cc1 (centres unmarked)
≤ 0.5 µg/mL

Return reported MIC; argument: N#Cc1ccc(COc2ccc(C(F)(F)C(O)(Cn3ncnn3)c3ccc(F)cc3F)nc2)nc1 (centres unmarked)
> 4 µg/mL

----------
Data export: MIC values recorded with Septoria tritici (ATCC 26517).

OC(Cn1cnnn1)(c1ccc(F)cc1F)C(F)(F)c1ccc(Oc2ccc(C(F)(F)F)nc2)cn1 (stereo not shown)
≤ 0.5 µg/mL
OC(Cn1cnnn1)(c1ccc(F)cc1F)C(F)(F)c1ccc(Oc2ccc(Cl)cn2)cn1 (stereo not shown)
≤ 0.5 µg/mL
OC(Cn1cnnn1)(c1ccc(F)cc1F)C(F)(F)c1ccc(OCc2ccc(OC(F)(F)F)cc2)cn1 (stereo not shown)
≤ 0.5 µg/mL
OC(Cn1cnnn1)(c1ccc(F)cc1F)C(F)(F)c1ccc(Oc2ncccn2)cn1 (stereo not shown)
0.5 to 1.5 µg/mL
OC(Cn1cnnn1)(c1ccc(F)cc1F)C(F)(F)c1ccc(Oc2ccc(/C=N/OCc3ccccc3)cn2)cn1 (stereo not shown)
0.5 to 1.5 µg/mL

Recall the recorded MIC for N#Cc1ccc(Oc2ccc(C(F)(F)C(O)(Cn3cnnn3)c3ccc(F)cc3F)nc2)nc1 (stereo not shown) with Septoria tritici (ATCC 26517) and state it.
≤ 0.5 µg/mL

Recall the recorded MIC for N#Cc1cnc(Oc2ccc(C(F)(F)C(O)(Cn3cnnn3)c3ccc(F)cc3F)nc2)s1 (stereo not shown) with Septoria tritici (ATCC 26517) and state it.
≤ 0.5 µg/mL

----------
Data export: MIC values recorded with Septoria tritici (ATCC 26517).

Return reported MIC; argument: OC(Cn1cnnn1)(c1ccc(F)cc1F)C(F)(F)c1ccc(Oc2cccc(Cl)c2)cn1 (stereo not drawn)
≤ 0.5 µg/mL

Return reported MIC; argument: N#CCOc1ccc(C(F)(F)C(O)(Cn2cnnn2)c2ccc(F)cc2F)nc1 (stereo not drawn)
1.5 to 4 µg/mL

Return reported MIC; argument: OC(Cn1ncnn1)(c1ccc(F)cc1F)C(F)(F)c1ccc(OCc2ccccn2)cn1 (stereo not drawn)
> 4 µg/mL

Return reported MIC; argument: N#Cc1ccc(Oc2ccc(C(F)(F)C(O)(Cn3cnnn3)c3ccc(F)cc3F)nc2)cc1F (stereo not drawn)
≤ 0.5 µg/mL

Return reported MIC; argument: N#Cc1cccc(Oc2ccc(C(F)(F)C(O)(Cn3cnnn3)c3ccc(F)cc3F)nc2)c1 (stereo not drawn)
≤ 0.5 µg/mL

Return reported MIC; argument: CC#CCOc1ccc(C(F)(F)C(O)(Cn2ncnn2)c2ccc(Cl)cc2F)nc1 (stereo not drawn)
> 4 µg/mL

Return reported MIC; argument: OC(Cn1cnnn1)(c1ccc(F)cc1F)C(F)(F)c1ccc(Oc2ncc(C(F)(F)F)cn2)cn1 (stereo not drawn)
≤ 0.5 µg/mL

Return reported MIC; argument: OC(Cn1cnnn1)(c1ccc(F)cc1F)C(F)(F)c1ccc(Oc2ccc(OC(F)(F)F)cc2)cn1 (stereo not drawn)
≤ 0.5 µg/mL

Return reported MIC; argument: OC(Cn1cnnn1)(c1ccc(F)cc1F)C(F)(F)c1ccc(OCC(F)c2ccc(OC(F)F)cc2)cn1 (stereo not drawn)
≤ 0.5 µg/mL

Return reported MIC; argument: CC(Oc1ccc(C(F)(F)C(O)(Cn2ncnn2)c2ccc(F)cc2F)nc1)C(F)(F)F (stereo not drawn)
0.5 to 1.5 µg/mL

Return reported MIC; argument: COc1ccc(COc2ccc(C(F)(F)C(O)(Cn3cnnn3)c3ccc(F)cc3F)nc2)cc1 (stereo not drawn)
≤ 0.5 µg/mL

Return reported MIC; argument: CC(C)COc1ccc(C(F)(F)C(O)(Cn2cnnn2)c2ccc(F)cc2F)nc1 (stereo not drawn)
≤ 0.5 µg/mL

Return reported MIC; argument: N#Cc1ccc(Oc2ccc(C(F)(F)C(O)(Cn3cnnn3)c3ccc(Cl)cc3F)nc2)cc1F (stereo not drawn)
≤ 0.5 µg/mL

Return reported MIC; argument: OC(Cn1cnnn1)(c1ccc(F)cc1F)C(F)(F)c1ccc(Oc2ncc(Cl)cn2)cn1 (stereo not drawn)
≤ 0.5 µg/mL

Return reported MIC; argument: C=COc1ccc(C(F)(F)C(O)(Cn2cnnn2)c2ccc(F)cc2F)nc1 (stereo not drawn)
1.5 to 4 µg/mL

Return reported MIC; argument: OC(Cn1cnnn1)(c1ccc(F)cc1F)C(F)(F)c1ccc(OCc2cccc(OCC(F)(F)F)c2)cn1 (stereo not drawn)
≤ 0.5 µg/mL

Return reported MIC; argument: OC(Cn1cnnn1)(c1ccc(F)cc1F)C(F)(F)c1ccc(OCC(F)(F)c2ccc(OC(F)F)cc2)cn1 (stereo not drawn)
≤ 0.5 µg/mL

Return reported MIC; argument: N#Cc1ccc(Oc2ccc(C(F)(F)C(O)(Cn3ncnn3)c3ccc(F)cc3F)nc2)c(F)c1 (stereo not drawn)
1.5 to 4 µg/mL

----------
Examples of molecules with documented MIC follow.
System: Septoria tritici (ATCC 26517)

Answered cases to consult:
OC(Cn1cnnn1)(c1ccc(F)cc1F)C(F)(F)c1ccc(OCc2ccc(Cl)cc2F)cn1 (stereo not drawn)
≤ 0.5 µg/mL
CO/N=C/c1ccc(Oc2ccc(C(F)(F)C(O)(Cn3cnnn3)c3ccc(F)cc3F)nc2)nc1 (stereo not drawn)
≤ 0.5 µg/mL

Return reported MIC; argument: OC(Cn1cnnn1)(c1ccc(F)cc1F)C(F)(F)c1ccc(Oc2ccc(Cl)cc2)cn1 (stereo not drawn)
≤ 0.5 µg/mL

----------
Tested on: Septoria tritici (ATCC 26517)
Reported metric: MIC

Answered cases to consult:
OC(Cn1cnnn1)(c1ccc(F)cc1F)C(F)(F)c1ccc(Oc2ccc(F)cc2)cn1 (stereo not drawn)
≤ 0.5 µg/mL
N#Cc1ccc(COc2ccc(C(F)(F)C(O)(Cn3cnnn3)c3ccc(Cl)cc3F)nc2)cc1 (stereo not drawn)
≤ 0.5 µg/mL
OC(Cn1cnnn1)(c1ccc(F)cc1F)C(F)(F)c1ccc(OCc2cccc(F)c2F)cn1 (stereo not drawn)
≤ 0.5 µg/mL

Return reported MIC; argument: N#Cc1cccc(COc2ccc(C(F)(F)C(O)(Cn3ncnn3)c3ccc(F)cc3F)nc2)c1 (stereo not drawn)
> 4 µg/mL

Return reported MIC; argument: OC(Cn1cnnn1)(c1ccc(F)cc1F)C(F)(F)c1ccc(OCc2ccc(Cl)c(F)c2)cn1 (stereo not drawn)
≤ 0.5 µg/mL

Return reported MIC; argument: N#Cc1cc(COc2ccc(C(F)(F)C(O)(Cn3ncnn3)c3ccc(F)cc3F)nc2)ccc1F (stereo not drawn)
> 4 µg/mL

Return reported MIC; argument: OC(Cn1cnnn1)(c1ccc(F)cc1F)C(F)(F)c1ccc(Oc2ccc3ccccc3n2)cn1 (stereo not drawn)
≤ 0.5 µg/mL

Return reported MIC; argument: OC(Cn1cnnn1)(c1ccc(F)cc1F)C(F)(F)c1ccc(OCC(F)(F)c2ccc(Cl)cc2)cn1 (stereo not drawn)
≤ 0.5 µg/mL
